System: sarcospheres derived from 143B, MG63.3-GFP, and LM7 cell lines
assay_summary: Sarcosphere resazurin metabolic activity, results stated across all three cell lines
Type: cell-based, human
assay_setup: HDIs in clinical trials; tested at their Cmax, with and without MAP
Protocol: Khanna DVM, PhD (NCI). […] Medium was sterile filtered before use. Highly metastatic osteosarcoma cells cultured in monolayers at 50% to 80% confluence were lifted with Accutase (Innovative Cell Technologies, Inc., cat. #NC9839010), resuspended in media, and diluted to the desired concentration. […] Following cell seeding, plates were centrifuged (1,000 g for 10 minutes at 4°C) and then incubated at 37°C with 5% CO2. […] Then, 100 μL drug treatment or vehicle was added to each well. […]
recorded_endpoint: effect on sarcosphere metabolic activity at Cmax

Illustrative cases are given below, each with its answer.
>  <sample_smiles>
CC(C)[C@H](C(=O)Nc1ccc(C(=O)NO)cc1)c1ccccc1

>  <reported_value>
most effective

$$$$
>  <sample_smiles>
CN(C)Cc1c(C(=O)NCCOc2ccc(C(=O)NO)cc2)oc2ccccc12

>  <reported_value>
weakly inhibited

$$$$
>  <sample_smiles>
CN(C)Cc1ccc(S(=O)(=O)n2ccc(/C=C/C(=O)NO)c2)cc1

>  <reported_value>
most effective

$$$$
>  <sample_smiles>
Nc1ccccc1NC(=O)c1ccc(CNc2nccc(-c3cccnc3)n2)cc1

>  <reported_value>
weakly inhibited

$$$$
>  <sample_smiles>
CCN(CC)Cc1ccc2cc(COC(=O)Nc3ccc(C(=O)NO)cc3)ccc2c1

>  <reported_value>
weakly inhibited

$$$$
>  <sample_smiles>
CCCCc1nc2cc(/C=C/C(=O)NO)ccc2n1CCN(CC)CC

>  <reported_value>
weakly inhibited

$$$$

Now consider a different compound.
Request: Name the recorded effect on sarcosphere metabolic activity at Cmax for "Cn1cc(CNCC2CCN(c3ncc(C(=O)NO)cn3)CC2)c2ccccc21" .
Result: weakly inhibited
